# System: herpes simplex 1 (HSV-1)
# assay_text: microbe, parasite or virus in culture
# Type: cell-based
# measurement_setup: read-out: IC50 HSV-1
Provide the recorded pIC50 for the entries that follow.
Answers are plain numbers, as −log10 of the molar value.

Reference set, count: 3
compound="CC(C)CNC(=O)[C@@H](N)Cc1ccc(OP2(=O)COC(Cn3cnc4c(N)ncnc43)CO2)cc1 (single isomer, unassigned) [(S,S)-1e]" experimental_result=4.46
compound="Nc1ncnc2c1ncn2C[C@@H](CO)OCP(=O)(O)O [Compound 1, reference compound]" experimental_result=4.46
compound="CC(C)OC(=O)[C@@H](N)Cc1ccc(OP2(=O)CO[C@@H](Cn3ccc(N)nc3=O)CO2)cc1 (stereo partly shown)" experimental_result=4.70

Here's the next entry for you.
Documented pIC50 of Nc1nc2c(ncn2COCCO)c(=O)[nH]1 [ACV, Acyclovir, reference compound] : 6.15

Origin of values: patent US8940313B2
